Biological target: angiotensin II receptor (Bos taurus, UniProt P25104)
Sequence (P25104 1-359): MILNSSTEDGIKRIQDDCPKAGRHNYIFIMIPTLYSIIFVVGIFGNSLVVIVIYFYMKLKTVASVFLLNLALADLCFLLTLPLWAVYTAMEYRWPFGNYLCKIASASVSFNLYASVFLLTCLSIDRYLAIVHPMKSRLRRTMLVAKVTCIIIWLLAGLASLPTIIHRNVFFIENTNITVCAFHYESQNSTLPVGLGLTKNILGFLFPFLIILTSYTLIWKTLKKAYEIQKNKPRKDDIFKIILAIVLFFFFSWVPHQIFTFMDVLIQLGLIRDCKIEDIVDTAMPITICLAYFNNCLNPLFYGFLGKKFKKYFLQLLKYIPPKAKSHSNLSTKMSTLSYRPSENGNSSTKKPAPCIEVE
pKi: −log10 of the molar value.
pKi for assorted compounds
Property Label: pKi

{"Compound": "CCCCc1nc(Cl)c(CO)n1Cc1ccc([C@@H]2CCCC[C@H]2C(=O)NS(=O)(=O)c2ccc(C)cc2)cc1 (relative stereo) [Example 9]", "Data Value": 6.92}
{"Compound": "CCCCc1nc(Cl)c(C(=O)O)n1Cc1ccc([C@@H]2CCCC[C@H]2C(=O)NS(=O)(=O)c2ccc(C)cc2)cc1 (relative stereo) [Example 13]", "Data Value": 7.14}
